Values from a collection of fitness landscapes (doi:10.1126/science.1257360)

Reported enrichment ratio values are given for each entry in this list.
B1: PhoQ; a variant is named by its letters at X, in order, P23837 (parent)
chain: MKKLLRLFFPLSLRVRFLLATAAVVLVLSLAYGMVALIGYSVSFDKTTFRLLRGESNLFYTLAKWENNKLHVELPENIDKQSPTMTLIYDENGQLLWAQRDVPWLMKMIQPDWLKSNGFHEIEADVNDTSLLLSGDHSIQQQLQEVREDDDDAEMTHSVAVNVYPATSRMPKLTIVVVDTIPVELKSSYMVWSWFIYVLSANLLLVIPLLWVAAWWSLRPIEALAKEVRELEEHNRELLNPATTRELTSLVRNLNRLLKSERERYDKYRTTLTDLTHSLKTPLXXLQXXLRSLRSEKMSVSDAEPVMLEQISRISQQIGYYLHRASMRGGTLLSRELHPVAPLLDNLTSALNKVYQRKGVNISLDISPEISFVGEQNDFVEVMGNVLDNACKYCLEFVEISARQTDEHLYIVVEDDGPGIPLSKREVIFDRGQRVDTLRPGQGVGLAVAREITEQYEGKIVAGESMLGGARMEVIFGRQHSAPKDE

- Variants of: B1
- test summary: enrichment ratio after two sorts for PhoP signalling (ratio (wild type AVST 3.29)); higher = more functional
- run conditions: with PhoP (E. coli)
Whole data set: some 140,000 sequences, median “enrichment ratio after two sorts for PhoP signalling” near 0, cut for the highest 2% near 11. What follows is part of a selection rich in the highest values, with near analogues and random picks from the rest.

Name the reported enrichment ratio value associated with the variant `AEIT` 2.48

Name the reported enrichment ratio value associated with the variant `TCQQ` 11.5

Name the reported enrichment ratio value associated with the variant `FDMV` ≤ 0.25

Name the reported enrichment ratio value associated with the variant `KCQI` ≤ 0.25

Name the reported enrichment ratio value associated with the variant `KLPM` ≤ 0.25

Name the reported enrichment ratio value associated with the variant `TLKV` 48.4

***
Name the reported enrichment ratio value associated with the variant `SLAV` 9.05

Name the reported enrichment ratio value associated with the variant `VECR` ≤ 0.25
